- Test system: 855422-203-R-J1-PDC spheroids with HUVEC/MSC, viability
- methodSummary: Anticancer human tumor 855422-203-R-J1-PDC patient-derived bladder carcinoma cell line growth inhibition [PI3K]
- testContext: second compound 0.00316 µM; first compound 0.001 µM; stronger effect = lower value
Listing of entries alongside the reported viability, T/C.
measurementKind: viability, T/C (%)

[[record]]
compound = "CC(C)n1nc(-c2ccc3oc(N)nc3c2)c2c(N)ncnc21 + CC(Nc1ccc2c(c1)OCCn1cc(N3C(=O)OCC3C(F)F)nc1-2)C(N)=O"
measurementtarget = "855422-203-R-J1-PDC spheroids with HUVEC/MSC, viability"
observedresult = 90.1

[[record]]
compound = "CC(=O)c1c(C)c2cnc(Nc3ccc(N4CCNCC4)cn3)nc2n(C2CCCC2)c1=O + COc1c(OCCCN2CCOCC2)ccc2c3n(c(=NC(=O)c4cnc(N)nc4)nc12)CCN3"
measurementtarget = "855422-203-R-J1-PDC spheroids with HUVEC/MSC, viability"
observedresult = 101

[[record]]
compound = "Cn1ncnc1[C@H]1c2n[nH]c(=O)c3cc(F)cc(c23)N[C@@H]1c1ccc(F)cc1 + CC(Nc1ccc2c(c1)OCCn1cc(N3C(=O)OCC3C(F)F)nc1-2)C(N)=O"
measurementtarget = "855422-203-R-J1-PDC spheroids with HUVEC/MSC, viability"
observedresult = 91.8

[[record]]
compound = "Cn1ncnc1[C@H]1c2n[nH]c(=O)c3cc(F)cc(c23)N[C@@H]1c1ccc(F)cc1 + COc1c(OCCCN2CCOCC2)ccc2c3n(c(=NC(=O)c4cnc(N)nc4)nc12)CCN3"
measurementtarget = "855422-203-R-J1-PDC spheroids with HUVEC/MSC, viability"
observedresult = 98

[[record]]
compound = "CC(C)n1nc(-c2ccc3oc(N)nc3c2)c2c(N)ncnc21 + COc1c(OCCCN2CCOCC2)ccc2c3n(c(=NC(=O)c4cnc(N)nc4)nc12)CCN3"
measurementtarget = "855422-203-R-J1-PDC spheroids with HUVEC/MSC, viability"
observedresult = 88.3

[[record]]
compound = "CC(=O)c1c(C)c2cnc(Nc3ccc(N4CCNCC4)cn3)nc2n(C2CCCC2)c1=O + CC(Nc1ccc2c(c1)OCCn1cc(N3C(=O)OCC3C(F)F)nc1-2)C(N)=O"
measurementtarget = "855422-203-R-J1-PDC spheroids with HUVEC/MSC, viability"
observedresult = 88.9


====

- Test system: 855422-203-R-J1-PDC spheroids with HUVEC/MSC, viability
- methodSummary: Anticancer human tumor 855422-203-R-J1-PDC cell line growth inhibition [PI3K];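 note: agents incubated with spheroids for one week before read-out; 100% = DMSO vehicle-treated control wells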
- testContext: second compound 0.1 µM; first compound 0.1 µM; stronger effect = lower value
Labelling: viability, T/C reported below 20% becomes 1; at or above becomes 0.

[[record]]
compound = "CC1(C)CCC(Nc2ncc(C(F)(F)F)c(-c3c[nH]c4c(P(C)(C)=O)c(C#N)ccc34)n2)CN1 (stereo not given) + Cc1nc(NC(=O)N2CCCC2C(N)=O)sc1-c1ccnc(C(C)(C)C(F)(F)F)c1"
labelclass = 0

[[record]]
compound = "CC(=O)c1c(C)c2cnc(Nc3ccc(N4CCNCC4)cn3)nc2n(C2CCCC2)c1=O + COc1c(OCCCN2CCOCC2)ccc2c3n(c(=NC(=O)c4cnc(N)nc4)nc12)CCN3"
labelclass = 1

[[record]]
compound = "CC(=O)c1c(C)c2cnc(Nc3ccc(N4CCNCC4)cn3)nc2n(C2CCCC2)c1=O + CC(Nc1ncnc2nc[nH]c12)c1cc2cccc(Cl)c2c(=O)n1-c1ccccc1"
labelclass = 0

[[record]]
compound = "C#Cc1c(F)ccc2cc(O)cc(-c3ncc4c(N5CC6CCC(C5)N6)nc(OCC56CCCN5CC(F)C6)nc4c3F)c12 (stereo not given) + CC(Nc1ccc2c(c1)OCCn1cc(N3C(=O)OCC3C(F)F)nc1-2)C(N)=O"
labelclass = 0

[[record]]
compound = "Cn1nccc1Nc1nccc(-c2ccn(C(CO)c3ccc(Cl)c(F)c3)c(=O)c2)n1 (stereo not given) + CC(Nc1ncnc2nc[nH]c12)c1cc2cccc(Cl)c2c(=O)n1-c1ccccc1"
labelclass = 0


Source listed as PubChem BioAssay AID1963967.
